Read-out: Human Leukocyte Antigen - DR isotype (HLADR), HLA-DRA (gene 3122)
Assay: BSK_BE3C_HLADR: BioMAP Diversity Plus: BE3C Assay for Human Leukocyte Antigen - DR isotype (HLADR) Biomarker Activity (AID 2283032)
Conditions: primary human bronchial epithelial cells; actives raise or lower the signal
Protocol: BSK_BE3C is a cell-based, multiplexed-readout assay that uses bronchial epithelial cell, a human lung primary cell, with measurements taken at 24 hours after chemical dosing in a 96-well plate.BSK_BE3C_HLADR is an assay component measured in the BSK_BE3C assay. It measures HLA-DR antibody related to regulation of gene expression using ELISA technology.Data from the assay component BSK_BE3C_HLADR was analyzed into 1 assay endpoint. […]
Active and inactive are the calls of the source. The calls were made as follows: active = hit-call score of the fitted dose curve at least 0.9, where 1 is the maximum; inactive = score below 0.9.
Respond using exactly one of the listed classes: 1.0 (active), 0.0 (inactive)

molecule	label
O=C1c2ccccc2C(=O)N1SC(Cl)(Cl)Cl	1.0
CC[C@H](C)[C@H]1O[C@]2(C=C[C@@H]1C)C[C@@H]1C[C@@H](C/C=C(\C)[C@@H](O[C@H]3C[C@H](OC)[C@@H](O[C@H]4C[C@H](OC)[C@@H](O)[C@H](C)O4)[C@H](C)O3)[C@@H](C)/C=C/C=C3\CO[C@@H]4[C@H](O)C(C)=C[C@@H](C(=O)O1)[C@]34O)O2 (tested in a mixture with another compound)	1.0
CCc1ccc(C(=O)NN(C(=O)c2cc(C)cc(C)c2)C(C)(C)C)cc1	0.0

Prompt: Test call, this molecule: CCOCN(C(=O)CCl)c1c(C)cccc1CC
Response: 1.0

Prompt: Test call, this molecule: ClC1C(Cl)C(Cl)C(Cl)C(Cl)C1Cl (stereo not given)
Response: 0.0

Prompt: Test call, this molecule: [2H]C1([2H])[n+]2ccccc2-c2cccc[n+]2C1([2H])[2H]
Response: 0.0

Prompt: Test call, this molecule: Oc1cc(Cl)ccc1Oc1ccc(Cl)cc1Cl
Response: 1.0

Prompt: Test call, this molecule: CC(C)OC(=O)Nc1cccc(Cl)c1
Response: 0.0

Prompt: Test call, this molecule: CC1(C)C(C=C(Cl)Cl)C1C(=O)OC(C#N)c1ccc(F)c(Oc2ccccc2)c1 (stereo not given)
Response: 0.0

====

read-out: Monokine induced gamma interferon (MIG), CXCL9 (gene 4283); experiment: BSK_3C_MIG: BioMAP Diversity Plus: 3C Assay for Monokine induced gamma interferon (MIG) Biomarker Activity (AID 2283021); conditions: primary human endothelial cells (HUVEC); actives raise or lower the signal
Active and inactive are the calls of the source. The calls were made as follows: active = hit-call score of the fitted dose curve at least 0.9, where 1 is the maximum; inactive = score below 0.9.
Respond using exactly one of the listed classes: t for active, f for inactive

Consider the following illustrative entries.
compound	label
O=C(NC(=O)c1c(F)cccc1F)Nc1ccc(OC(F)(F)C(F)OC(F)(F)F)c(Cl)c1 (stereo not drawn)	f
O=S(=O)(O)C(F)(F)C(F)(F)C(F)(F)C(F)(F)C(F)(F)C(F)(F)C(F)(F)C(F)(F)F	f
CCCN(CCOc1c(Cl)cc(Cl)cc1Cl)C(=O)n1ccnc1	f

Prompt: Test call, this compound: Oc1ccc(Cl)cc1Cc1ccccc1
Response: t

Prompt: Test call, this compound: Cc1[nH]c(=O)n(C(C)(C)C)c(=O)c1Cl
Response: f

Prompt: Test call, this compound: CNC(=O)/C=C(\C)OP(=O)(OC)OC
Response: f

Prompt: Test call, this compound: COC(=O)c1ccccc1CS(=O)(=O)NC(=O)Nc1nc(OC)cc(OC)n1
Response: f

Prompt: Test call, this compound: CCC(C)(C)C(=O)OC1=C(c2ccc(Cl)cc2Cl)C(=O)OC12CCCCC2
Response: t

====

target: AR (gene 367) (UniProt P10275); experiment: ACEA_AR_antagonist_80hr: ACEA Biosciences xCELLigence Real-Time Cell Analysis on Androgen Receptor Antagonism for Proliferation (AID 2283787);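 also: 22Rv1 human prostate cancer cells with growth followed by electrical impedance; hits lower the impedance growth signal relative to DMSO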
Sequence (P10275 whole entry, looked up): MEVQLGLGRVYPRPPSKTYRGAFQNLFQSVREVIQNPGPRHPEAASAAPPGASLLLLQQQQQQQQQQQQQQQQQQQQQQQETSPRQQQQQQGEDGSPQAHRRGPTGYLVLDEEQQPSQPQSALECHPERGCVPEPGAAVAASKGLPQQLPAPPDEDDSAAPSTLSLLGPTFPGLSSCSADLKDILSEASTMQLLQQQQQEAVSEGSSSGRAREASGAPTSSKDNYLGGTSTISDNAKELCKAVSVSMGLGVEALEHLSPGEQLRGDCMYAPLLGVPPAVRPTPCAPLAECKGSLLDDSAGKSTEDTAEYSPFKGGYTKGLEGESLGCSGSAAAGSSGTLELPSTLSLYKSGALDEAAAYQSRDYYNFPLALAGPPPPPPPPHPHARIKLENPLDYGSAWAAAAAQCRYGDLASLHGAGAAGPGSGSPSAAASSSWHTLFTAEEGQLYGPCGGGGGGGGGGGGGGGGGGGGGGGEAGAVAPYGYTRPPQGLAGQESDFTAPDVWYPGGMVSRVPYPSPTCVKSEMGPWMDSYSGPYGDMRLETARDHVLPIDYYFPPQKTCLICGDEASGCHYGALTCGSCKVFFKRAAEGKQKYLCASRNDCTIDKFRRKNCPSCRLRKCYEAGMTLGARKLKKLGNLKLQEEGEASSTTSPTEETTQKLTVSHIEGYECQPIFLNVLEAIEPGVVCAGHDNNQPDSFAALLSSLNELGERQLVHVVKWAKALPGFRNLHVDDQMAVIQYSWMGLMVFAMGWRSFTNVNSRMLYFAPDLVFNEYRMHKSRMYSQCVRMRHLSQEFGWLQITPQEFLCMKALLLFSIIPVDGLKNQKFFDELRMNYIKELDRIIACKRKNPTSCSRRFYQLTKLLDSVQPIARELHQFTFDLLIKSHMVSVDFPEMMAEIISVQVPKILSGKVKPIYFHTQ
Inconclusive results are not listed. The source made the active and inactive calls. How the source made its calls: active means hit-call score of the fitted dose curve at least 0.9, where 1 is the maximum; inconclusive means response in the unintended direction; inactive means score below 0.9.
Respond using exactly one of the listed classes: true (1) (active), false (0) (inactive)

Consider the following illustrative entries.
compound	system	label
CCC(C)(C)C(=O)OC1=C(c2ccc(Cl)cc2Cl)C(=O)OC12CCCCC2	AR (gene 367) (UniProt P10275)	false (0)
C#CCN1C(=O)COc2cc(F)c(N3C(=O)C4=C(CCCC4)C3=O)cc21	AR (gene 367) (UniProt P10275)	true (1)
O=C(O)CCCOc1ccc(Cl)cc1Cl	AR (gene 367) (UniProt P10275)	false (0)
CCCN(CCC)c1c([N+](=O)[O-])cc(C(F)(F)F)cc1[N+](=O)[O-]	AR (gene 367) (UniProt P10275)	true (1)
O=S1OCC2C(CO1)C1(Cl)C(Cl)=C(Cl)C2(Cl)C1(Cl)Cl (stereo unspecified)	AR (gene 367) (UniProt P10275)	true (1)

Note: attention shifts to another entry.
Prompt: Test call, this compound: Oc1ccc(Cl)cc1Cc1ccccc1
Response: true (1)

====

target: human AMP-activated Protein Kinase, alpha 1 (AMPKa1), PRKAA1 (gene 5562) (UniProt Q13131); assay: NVS_ENZ_hAMPKa1: NovaScreen (NVS) Enzymatic Assay for human AMP-activated Protein Kinase, alpha 1 (AMPKa1) (AID 2283130)
Sequence (Q13131 whole entry, looked up): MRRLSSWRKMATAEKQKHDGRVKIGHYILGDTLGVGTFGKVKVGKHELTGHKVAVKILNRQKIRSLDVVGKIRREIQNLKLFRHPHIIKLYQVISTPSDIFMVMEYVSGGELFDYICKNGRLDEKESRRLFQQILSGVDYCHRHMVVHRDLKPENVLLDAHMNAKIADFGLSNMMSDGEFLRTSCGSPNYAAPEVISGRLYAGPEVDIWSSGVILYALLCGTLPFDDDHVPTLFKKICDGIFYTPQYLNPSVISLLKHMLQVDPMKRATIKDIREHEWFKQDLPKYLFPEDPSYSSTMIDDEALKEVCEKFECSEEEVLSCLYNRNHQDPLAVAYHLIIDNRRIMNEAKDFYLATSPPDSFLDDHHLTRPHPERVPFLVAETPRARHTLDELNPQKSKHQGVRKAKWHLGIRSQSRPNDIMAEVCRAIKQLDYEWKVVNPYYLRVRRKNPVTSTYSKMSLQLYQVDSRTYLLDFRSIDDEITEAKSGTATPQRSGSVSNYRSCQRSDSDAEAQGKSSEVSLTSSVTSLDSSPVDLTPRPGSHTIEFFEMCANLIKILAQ
Results filed as inconclusive are left out. The source made the active and inactive calls. How the source made its calls: active means hit-call score of the fitted dose curve at least 0.9, where 1 is the maximum; inconclusive means response in the unintended direction; inactive means score below 0.9.
Respond using exactly one of the listed classes: active, inactive

Consider the following illustrative entries.
molecule	label
CC(C)(C)C(O)C(Oc1ccc(Cl)cc1)n1cncn1 (centres undefined)	inactive
Oc1cc(Cl)ccc1Oc1ccc(Cl)cc1Cl	inactive
CC[C@H](C)[C@H]1O[C@]2(C=C[C@@H]1C)C[C@@H]1C[C@@H](C/C=C(\C)[C@@H](O[C@H]3C[C@H](OC)[C@@H](O[C@H]4C[C@H](OC)[C@@H](O)[C@H](C)O4)[C@H](C)O3)[C@@H](C)/C=C/C=C3\CO[C@@H]4[C@H](O)C(C)=C[C@@H](C(=O)O1)[C@]34O)O2 (tested in a mixture with another compound)	active

Note: attention shifts to another entry.
Prompt: Test call, this molecule: Oc1ccc(Cl)cc1Cc1ccccc1
Response: inactive

====

assay: CEETOX_H295R_DOC: CeeTox H295R High-throughput Steroidogenesis Assay for DOC (AID 2283439); details: actives raise or lower the signal
Active and inactive are the calls of the source. The calls were made as follows: active = hit-call score of the fitted dose curve at least 0.9, where 1 is the maximum; inactive = score below 0.9.
Respond using exactly one of the listed classes: active, inactive

compound	label
COP(=S)(OC)Oc1ccc(SC)c(C)c1	inactive
C[C@H]1[C@H](c2ccc(Cl)cc2)SC(=O)N1C(=O)NC1CCCCC1	inactive
O=C(NC(=O)c1c(F)cccc1F)Nc1ccc(OC(F)(F)C(F)OC(F)(F)F)c(Cl)c1 (stereo unspecified)	inactive

Prompt: Test call, this compound: C#CCN1C(=O)COc2cc(F)c(N3C(=O)C4=C(CCCC4)C3=O)cc21
Response: inactive

====

read-out: Vascular cell adhesion molecule 1 (VCAM1), VCAM1 (gene 7412); assay: BSK_CASM3C_VCAM1: BioMAP Diversity Plus: CASM3C Assay for Vascular cell adhesion molecule 1 (VCAM1) Biomarker Activity (AID 2283055); conditions: primary human coronary artery smooth muscle cells; actives raise or lower the signal;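 also: VCAM-1 protein level quantified by ELISA on the cells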
Active and inactive are the calls of the source. Rule for the calls: active = hit-call score of the fitted dose curve at least 0.9, where 1 is the maximum; inactive = score below 0.9.
Respond using exactly one of the listed classes: active, inactive

compound	label
CCC(C)(C)C(=O)OC1=C(c2ccc(Cl)cc2Cl)C(=O)OC12CCCCC2	inactive
OCCOc1ccccc1	inactive
Clc1ccccc1-c1nnc(-c2ccccc2Cl)nn1	inactive

Prompt: Test call, this compound: O=C(NC(=O)c1c(F)cccc1F)Nc1ccc(OC(F)(F)C(F)OC(F)(F)F)c(Cl)c1 (stereo unspecified)
Response: inactive

Prompt: Test call, this compound: O=[N+]([O-])c1c(Cl)c(Cl)c(Cl)c(Cl)c1Cl
Response: inactive

Prompt: Test call, this compound: Cc1[nH]c(=O)n(C(C)(C)C)c(=O)c1Cl
Response: inactive

Prompt: Test call, this compound: CN1CSC(=S)N(C)C1
Response: active

====

Read-out: Interleukin-1 alpha (IL1a), IL1A (gene 3552)
Assay: BSK_LPS_IL1a: BioMAP Diversity Plus: LPS Assay for Interleukin-1 alpha (IL1a) Biomarker Activity (AID 2283080)
Details: primary human HUVEC with PBMC; actives raise or lower the signal
Protocol: BSK_LPS is a cell-based, multiplexed-readout assay that uses umbilical vein endothelium and peripheral blood mononuclear cells, a human vascular primary cell co-culture, with measurements taken at 24 hours after chemical dosing in a 96-well plate.BSK_LPS_IL1a is an assay component measured in the BSK_LPS assay. It measures IL-a antibody related to regulation of gene expression using ELISA technology.Data from the assay component BSK_LPS_IL1a was analyzed into 1 assay endpoint. […]
Active and inactive are the calls of the source. How the source made its calls: active means hit-call score of the fitted dose curve at least 0.9, where 1 is the maximum; inactive means score below 0.9.
Respond using exactly one of the listed classes: yes = active, no = inactive

Consider the following illustrative entries.
molecule	label
CCc1ccc(C(=O)NN(C(=O)c2cc(C)cc(C)c2)C(C)(C)C)cc1	no
COP(=S)(OC)Oc1ccc(SC)c(C)c1	no
CCCN(CCOc1c(Cl)cc(Cl)cc1Cl)C(=O)n1ccnc1	no
CCC(C)(C)C(=O)OC1=C(c2ccc(Cl)cc2Cl)C(=O)OC12CCCCC2	yes
CCCN(CCC)c1c([N+](=O)[O-])cc(C(F)(F)F)cc1[N+](=O)[O-]	no
CCOCN(C(=O)CCl)c1c(C)cccc1CC	no

Prompt: Test call, this molecule: COP(=O)(OC)OC=C(Cl)Cl
Response: no

Prompt: Test call, this molecule: Cc1[nH]c(=O)n(C(C)(C)C)c(=O)c1Cl
Response: no

Prompt: Test call, this molecule: CC[C@H](C)[C@H]1O[C@]2(C=C[C@@H]1C)C[C@@H]1C[C@@H](C/C=C(\C)[C@@H](O[C@H]3C[C@H](OC)[C@@H](O[C@H]4C[C@H](OC)[C@@H](O)[C@H](C)O4)[C@H](C)O3)[C@@H](C)/C=C/C=C3\CO[C@@H]4[C@H](O)C(C)=C[C@@H](C(=O)O1)[C@]34O)O2 (tested in a mixture with another compound)
Response: yes
